system: A498 renal; experiment: NCI-60 one-dose screen, 48 h; conditions: 10 µM unless noted
This is part of a sample that, as a whole, favours compounds with a hit. Of some 83,000 tested, about 20% had one in any assay. Calls of active or inactive are those of the source. Rule for the calls: active = growth percent below 10; inactive = the rest.
Your response should consist of one outcome taken from active, inactive

Consider the following illustrative entries.
O=c1c(CNc2ccc(S(=O)(=O)Nc3ncccn3)cc2)coc2ccccc12; inactive
COc1cc2[nH]c(C(=O)c3cc(OC)c(OC)c(OC)c3)c(N)c2cc1C#CC1CC1; active
Brc1cnc2[nH]cc(-c3nnc(-c4ccccc4)o3)c2c1; inactive

Prompt: Recorded call for Nc1ccc(Cl)cn1 ?
Response: inactive

Prompt: Recorded call for O=S(=O)(NCCNc1cc(-c2cn(-c3ccccc3)nc2-c2cccc(O)c2)ccn1)c1ccc(Cl)cc1 ?
Response: inactive

Prompt: Recorded call for COc1ccc(C(=O)c2cc(OC)c(OC)c(OC)c2)cc1/C=C/C(=O)c1cc(OC)c(OC)c(OC)c1 ?
Response: inactive

Prompt: Recorded call for O=C(NO)c1ccc(Cn2c(=O)n(-c3ccccc3)c(=O)c3ccccc32)cc1 ?
Response: active

Prompt: Recorded call for N=c1c(S(=O)(=O)c2ccccc2)cc2c(=O)n3ccccc3nc2n1C1CCCC1 ?
Response: active

---

tested on: TK-10 renal; assay: NCI-60 one-dose screen, 48 h (100 = growth as untreated, 0 = no growth, -100 = all killed); settings: 10 µM unless noted
This is part of a sample that, as a whole, favours compounds with a hit. Of some 83,000 tested, about 20% had one in any assay.
# growth per entry
API: value field is a number in %; no unit string.

Solved cases (2 shown):
CCOC(=O)N1CCN(CCCCOc2ccc(C(C)(C)CC)cc2)CC1; 120
Nc1c2c(nc3ccc(Br)cc13)CC(c1ccccc1)CC2=O (centres undefined); 85.7

Prompt: Consider the compound COC(=O)[C@]12CC[C@@H](C)[C@H](C)[C@@H]1C1=CC[C@@H]3[C@@]4(C)C[C@@H](OC(C)=O)[C@H](OC(C)=O)[C@@](C)(COC(C)=O)[C@@H]4[C@H](O)C[C@@]3(C)[C@]1(C)CC2 . State its measured growth.
Response: -1.29

Prompt: Consider the compound Cc1ccc(-c2nc([P+](c3ccccc3)(c3ccccc3)c3ccccc3)c(N3CCOCC3)o2)cc1 . State its measured growth.
Response: 20.8

Prompt: Consider the compound Cc1cc2nc3c4cc([N+](=O)[O-])cc([N+](=O)[O-])c4n(CCN(C)C)c3nc2cc1C . State its measured growth.
Response: 117

Prompt: Consider the compound O=C1c2ccccc2NC(c2cn(-c3ccccc3)nc2-c2cccs2)N1Cc1ccccc1 (centres undefined) . State its measured growth.
Response: 91.1

Prompt: Consider the compound CCOc1ccc(NC(=O)c2ccccc2-c2ccccc2C(=O)O)cc1 . State its measured growth.
Response: 110

Prompt: Consider the compound O=P(O)(c1ccccc1)c1ccccc1I . State its measured growth.
Response: 102

Prompt: Consider the compound Oc1ccc(CCC2CCCC(CCc3ccc(OCCF)cc3)N2)cc1 (centres undefined) . State its measured growth.
Response: 96.7

---

system: NCI-H226 lung; assay: NCI-60 one-dose screen, 48 h; conditions: 10 µM unless noted
About 83,000 compounds went through this panel and 20% of them were active in at least one assay; those are over-represented in the sample as a whole. Calls of active or inactive are those of the source. The calls were made as follows: active = growth percent below 10; inactive = the rest.
Your response should consist of one outcome taken from 1 (yes) (active), 0 (no) (inactive)

CC1(C)C(=O)/C(=C\c2ccccn2)C[C@]2(C)[C@H]3CC[C@@H]4[C@@H](C(=O)/C=C/c5ccccn5)CC[C@@]4(C)[C@]3(C)CC[C@@H]12; 1 (yes)

Prompt: Recorded call for C/C(Cc1ccc(Cl)cc1)=C(/c1ccc(Cl)cc1)c1ccc(OCCN2CCCC2)cc1 ?
Response: 0 (no)

Prompt: Recorded call for COc1ccc(/C=C2\N=C(c3ccccc3)N(c3cc(OC)c(OC)cc3C(=O)N3N=C(C)CC3=O)C2=O)cc1 ?
Response: 0 (no)

Prompt: Recorded call for Cc1cc2nc3c4cc(N)ccc4n(CCN(C)C)c3nc2cc1C ?
Response: 1 (yes)

Prompt: Recorded call for COc1ccc(-c2n[nH]nc2-c2cc3ccccc3s2)cc1O ?
Response: 0 (no)

Prompt: Recorded call for COc1cccc(-c2nn(-c3ccccc3)cc2-c2ccnc(NCCNS(=O)(=O)c3ccccc3)c2)c1 ?
Response: 0 (no)

Prompt: Recorded call for Fc1cccc(-c2[nH]nc3nc(Nc4cccnc4)sc23)c1 ?
Response: 0 (no)

Prompt: Recorded call for Cn1c(=O)c2c(ncn2CC(=O)Nc2ccc(S(N)(=O)=O)cc2)n(C)c1=O ?
Response: 0 (no)

Prompt: Recorded call for Cc1ccc(-c2nc([P+](c3ccccc3)(c3ccccc3)c3ccccc3)c(N3C[C@H]4C[C@H](C3)c3cccc(=O)n3C4)o2)cc1 ?
Response: 0 (no)
